molecular target: LTBP1 (Rhodnius prolixus, UniProt Q7YT09, Y131A); assay: isothermal titration calorimetry, single-site fit
Sequence (Q7YT09 18-173, stated change not applied): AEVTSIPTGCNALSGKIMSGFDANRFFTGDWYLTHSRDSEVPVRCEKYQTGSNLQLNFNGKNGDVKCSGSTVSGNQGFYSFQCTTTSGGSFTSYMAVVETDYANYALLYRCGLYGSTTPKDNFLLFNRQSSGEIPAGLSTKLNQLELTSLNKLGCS
# pKd listing for each entry below
pKd (log units): -log10 of the concentration in mol/L.

Given the entry `CCCCC/C=C\C\C=C/C=C/C=C/[C@@H](SC[C@H](N)C(=O)NCC(=O)O)[C@@H](O)CCCC(=O)O` , report its measured pKd.
7.32

Similarly, `CCCCC/C=C\C\C=C/C=C/C=C/[C@@H](SC[C@H](NC(=O)CC[C@H](N)C(=O)O)C(=O)NCC(=O)O)[C@@H](O)CCCC(=O)O` ?
7.32

###

target: LTBP1 (Rhodnius prolixus); experiment: isothermal titration calorimetry, single-site fit
EXPERIMENTAL_ENDPOINT: Kd (nM)
// return numeric value only (unit: nM, not printed)

Given the entry `CCCCC/C=C\C\C=C/C=C/C=C/[C@@H](SC[C@H](N)C(=O)O)[C@@H](O)CCCC(=O)O` , report its measured Kd.
2.13

Here is another molecule to look at.
Given the entry `CCCCC/C=C\C[C@@H](O)/C=C/C=C/C=C\[C@@H](O)CCCC(=O)O` , report its measured Kd.
238

These entries and their values trace back to paper PMC4990137.
